experimental target: Recombinant human TG2 (Homo sapiens)
Construct: GST (with PSP protease site, plasmid pGST-PSP-rhTG2) (N, cleaved yes)
Sequence (P21980 whole entry): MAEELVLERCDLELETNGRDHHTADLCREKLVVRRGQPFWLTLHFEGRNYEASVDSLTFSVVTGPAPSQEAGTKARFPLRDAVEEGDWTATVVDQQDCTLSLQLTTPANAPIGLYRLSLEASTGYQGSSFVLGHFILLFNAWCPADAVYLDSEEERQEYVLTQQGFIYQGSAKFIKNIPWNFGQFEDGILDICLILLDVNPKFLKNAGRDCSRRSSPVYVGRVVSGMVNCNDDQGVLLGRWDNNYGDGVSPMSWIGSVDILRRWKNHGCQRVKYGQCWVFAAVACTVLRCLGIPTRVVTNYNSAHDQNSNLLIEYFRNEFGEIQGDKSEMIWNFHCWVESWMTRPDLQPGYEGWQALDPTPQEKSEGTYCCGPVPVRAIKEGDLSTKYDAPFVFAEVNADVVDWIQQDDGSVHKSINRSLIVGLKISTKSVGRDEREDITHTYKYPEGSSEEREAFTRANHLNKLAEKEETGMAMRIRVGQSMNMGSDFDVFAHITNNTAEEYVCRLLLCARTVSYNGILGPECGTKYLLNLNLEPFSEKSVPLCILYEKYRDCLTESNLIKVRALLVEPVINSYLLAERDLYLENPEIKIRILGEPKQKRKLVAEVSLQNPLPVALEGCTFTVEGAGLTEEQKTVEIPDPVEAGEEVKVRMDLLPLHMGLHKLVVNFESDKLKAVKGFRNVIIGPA
test: rhTG2 inhibition assay, continuous chromogenic substrate AL5, Kitz and Wilson conditions
measurement parameters: irreversible inhibition; * compounds fitted to double reciprocal model; 25 °C, pH 6.9, 100 µM AL5
Peptide text beside a SMILES is read from it. * marks the point of attachment. X1 = C=CC(=O)NCCCCC(NC(=O)OCc1ccccc1)C(=O)N1CCN(C(=O)C(CCC(=O)*)NC(=O)c2cccc3ccccc23)CC1
measured endpoint: Ki

Past entries and their recorded results:
C=CC(=O)NCCCC[C@H](NC(=O)OCc1ccccc1)C(=O)N1CCN(C(=O)[C@H](CCC(=O)NCCCCCNC(=O)c2cc3ccc(N(CC)CC)cc3oc2=O)NC(=O)c2cccc3ccccc23)CC1 ... 1300 nM
C=CC(=O)NCCCCC(NC(=O)OCc1ccccc1)C(=O)N1CCN(C(=O)C(CCC(=O)NCCCCCC(=O)NC(CC(=O)O)C(=O)NC(CC(=O)O)C(=O)NC(CC(=O)O)C(=O)O)NC(=O)c2cccc3ccccc23)CC1 (stereo not shown) ... 1000 nM
C=CC(=O)NCCCCC(NC(=O)OCc1ccccc1)C(=O)N1CCN(C(=O)C(CCC(=O)NCC(=O)NCC(=O)NCC(=O)NC(CC(=O)O)C(=O)NC(CC(=O)O)C(=O)NC(CC(=O)O)C(=O)O)NC(=O)c2cccc3ccccc23)CC1 (stereo not shown) [Compound 18] (X1-GGGDDD-OH; configuration not given here) ... 4100 nM

Moving on to another molecule below.
Prompt: Name the recorded Ki for "C#CCNC(=O)CC[C@H](NC(=O)c1cccc2ccccc12)C(=O)N1CCN(C(=O)[C@H](CCCCNC(=O)C=C)NC(=O)OCc2ccccc2)CC1" .
Completion: 900 nM
